Exercise: state measured Kd for each of the binders provided.
Target: T1, EsCas13d, nuclease-dead (Eubacterium siraeum, UniProt B0MS50, R295A;H300A;R849A;H854A)
T1 sequence: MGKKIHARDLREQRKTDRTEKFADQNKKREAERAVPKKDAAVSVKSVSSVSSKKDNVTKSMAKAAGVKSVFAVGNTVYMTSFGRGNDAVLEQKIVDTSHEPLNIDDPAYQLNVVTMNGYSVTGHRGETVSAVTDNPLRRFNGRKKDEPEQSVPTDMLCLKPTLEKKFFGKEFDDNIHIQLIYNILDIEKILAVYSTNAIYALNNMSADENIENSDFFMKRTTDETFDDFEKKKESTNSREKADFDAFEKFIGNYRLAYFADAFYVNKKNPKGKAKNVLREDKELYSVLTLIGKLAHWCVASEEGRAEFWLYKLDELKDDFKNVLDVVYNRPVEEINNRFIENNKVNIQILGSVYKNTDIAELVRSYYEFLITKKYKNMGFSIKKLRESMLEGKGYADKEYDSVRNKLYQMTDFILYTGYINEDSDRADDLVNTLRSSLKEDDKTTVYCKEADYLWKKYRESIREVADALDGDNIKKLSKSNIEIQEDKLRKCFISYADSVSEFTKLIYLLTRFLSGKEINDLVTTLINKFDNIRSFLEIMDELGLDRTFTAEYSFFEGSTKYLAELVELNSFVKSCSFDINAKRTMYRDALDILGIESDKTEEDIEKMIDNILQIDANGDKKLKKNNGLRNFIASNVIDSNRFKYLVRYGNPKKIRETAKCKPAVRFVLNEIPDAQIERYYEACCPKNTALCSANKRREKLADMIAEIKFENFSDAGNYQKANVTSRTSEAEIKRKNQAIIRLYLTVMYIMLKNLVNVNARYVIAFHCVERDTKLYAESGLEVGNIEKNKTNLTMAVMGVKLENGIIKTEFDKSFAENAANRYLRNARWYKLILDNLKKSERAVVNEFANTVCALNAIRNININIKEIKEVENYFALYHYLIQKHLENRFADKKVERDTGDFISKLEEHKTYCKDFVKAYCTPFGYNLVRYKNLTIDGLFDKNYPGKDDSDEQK
Test: crRNA (strand 1, pre-loaded); Mg2+; 40 mM Tris-HCl pH 7.5, 150 mM NaCl, 6 mM MgCl2, 1 mM DTT, 0.1% Tween-20, 0.2 mg/ml BSA; 25 C; 10 min per concentration, then washed
Conditions: tags: His6-TwinStrep-SUMO cleaved; N-terminal SNAP kept (SNAP-Surface 488); label: 3' end held by stalled T7 RNA polymerase
Numbers only, in nM.

target 1 insU 3' of 13,insC 3' of 13 (mixed) RNA 1: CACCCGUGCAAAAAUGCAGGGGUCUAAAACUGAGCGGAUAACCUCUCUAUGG RNA 2: GGGAAUGGAUCCACAUCUACGAAUUCGUACCAUAGAGAGUCGUUAUCCGCUCACCGAGAUCGGAAGAGCACACGU : 8.6

Turning now to a further binder:
Q. Let me know recorded Kd for target 3 G4C,U21C (mixed) RNA 1: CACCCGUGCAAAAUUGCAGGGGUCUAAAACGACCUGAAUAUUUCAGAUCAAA RNA 2: GGGAAUGGAUCCACAUCUACGAAUUCGUUUCUGAUCUGAAAUAUUCACGUCUGCAGAUCGGAAGAGCACACGU , thanks.
A. 60
